Reference for the values: ChEMBL document CHEMBL4513149

# Tested on: Escherichia coli
# conditionSet: Concentration 20 uM; ASSAY_TEST Inhibition of Bacterial Growth; detection method Absorption (OD600); MEDIA CAMHB; plate type 384well; NBS; CORNING #3640; time 18 hr
# Description: Antibacterial activity against Escherichia coli ATCC 25922 (CO-ADD:GN_001); MIC in CAMBH media using NBS plates, by OD(600)
Results with a measured potency or affinity are listed apart.
measurementLabel: Inhibition (%)
Give the value, in units of %, as a plain number.

The cases that follow already have their Inhibition on record.
                                   molecule  measurementlabel  unitstring  observedmeasurement
0  Cn1ncc2c(N3CCOCC3)nc(NCCc3c[nH]c4ccccc34)nc21        Inhibition           %                -1.67
1             CCCn1c(CNc2ccccc2O)nc2ccccc21        Inhibition           %                 4.85
2  CN1CCC(NCc2cccc(-c3ccc(S(=O)(=O)NCc4ccccc4)cc3)c2)CC1        Inhibition           %                 4.63

Query molecule follows.
Memo: O=C(c1cc2ccccc2o1)N1CCN(Cc2ccc3c(c2)OCO3)CC1 , reported Inhibition: 11.22

====

# System: Staphylococcus aureus
# conditionSet: Concentration 20 uM; ASSAY_TEST Inhibition of Bacterial Growth; detection method Absorption (OD600); MEDIA CAMHB; plate type 384well; NBS; CORNING #3640; time 18 hr
# Description: Antibacterial activity against Staphylococcus aureus MRSA ATCC 43300 (CO-ADD:GP_020); MIC in CAMBH media, using NBS plates, by OD(600)
Results with a measured potency or affinity are listed apart.
Overview of reported Inhibition across a group of molecules:
// units = %; emit number, no label

Some solved entries appear below for comparison.
                                   molecule  observedmeasurement
0  COc1ccc(CCN2CCC(NCc3cccc(N(C)C)c3)CC2)cc1                16.93
1  O=C(CN1CCOCC1)Nc1ccc2ncnc(Nc3ccc(OCc4cccc(F)c4)c(Cl)c3)c2c1                14.97
2  Cl.Cn1ccnc1CNCCS(=O)(=O)c1cccc(Nc2ccc(-c3cccc(F)c3)cn2)c1                 24.8

Value of measured Inhibition for the entry Cc1ccc2[nH]c3c(NCCN(C)C)ncnc3c2c1 : 20.13

Memo: Cc1cc(O)nc(-n2nc(C)cc2C)n1 , reported Inhibition: 9.17

The reported value for COc1ccc(C2=NCCN2)cc1-c1cn(-c2cccc(C3=NCCN3)c2)nn1.O=C(O)C(F)(F)F.O=C(O)C(F)(F)F in terms of Inhibition is 20.97

Per the record, Nc1ncnc2c1ncn2C[C@@H](O)[C@@H](O)C(=O)O [ERITADENINE] has Inhibition of 13.9

Sure, the documented Inhibition for Cc1cc(C)cc(COc2ccc3c(C)c(CCC(=O)O)c(=O)oc3c2C)c1 is 19.34

Summary for this molecule, Cc1ccc(S(=O)(=O)N2CCN(C(=O)c3cc(-c4ccccc4)n[nH]3)CC2)cc1 : Inhibition is 1.4

====

# Tested on: Escherichia coli
# conditionSet: Concentration 20 uM; ASSAY_TEST Inhibition of Bacterial Growth; detection method Absorption (OD600); MEDIA CAMHB; plate type 384well; NBS; CORNING #3640; time 18 hr
Entries with a potency or affinity are not part of this list.
measurementLabel: Inhibition (%)
Report the figure in % without appending any unit label.

Take a look at these entries with their results.
                               smilesstring        systemname  measurementlabel  unitstring  observedmeasurement
0  O=C(CN1CCOCC1)Nc1ccc2ncnc(Nc3ccc(OCc4cccc(F)c4)c(Cl)c3)c2c1  Escherichia coli        Inhibition           %                 4.06
1     Cc1cc(NCC(C)C)c2[nH]nc(-c3ccccc3)c2n1  Escherichia coli        Inhibition           %                 8.23
2       O=C(Cn1ccnc1[N+](=O)[O-])NCc1ccccc1  Escherichia coli        Inhibition           %                 9.92

Record c1ccc2c(c1)CN(CC1CC1)CC1(CCN(Cc3c[nH]c4cnccc34)CC1)O2 , field Inhibition: 1.67
